// provenance: ChEMBL document CHEMBL2157958

- experiment: Binding affinity at VGCC by patch clamp method
Activity below 10 µM gives 0; Activity at or above it gives 1.

molecule: CCOC(=O)C1=C(C)N=C(C)/C(=C(/O)OCC)C1c1c(-c2cccc(Cl)c2)noc1C (stereo not given)
classification: 0
--
molecule: CCOC(=O)C1=C(C)N=C(C)/C(=C(/O)OCC)C1c1c(-c2ccccc2OC)noc1C (stereo not given)
classification: 1
--
molecule: CCOC(=O)C1=C(C)N=C(C)/C(=C(/O)OCC)C1c1c(-c2cc(Cl)ccc2OC)noc1C (stereo not given)
classification: 0
--
molecule: CCOC(=O)C1=C(C)N=C(C)/C(=C(/O)OCC)C1c1c(-c2ccccc2Cl)noc1C (stereo not given)
classification: 0
--
molecule: CCOC(=O)C1=C(C)N=C(C)/C(=C(/O)OCC)C1c1c(C)noc1CCc1cccc2ccccc12 (stereo not given)
classification: 0
